Data provenance: patent US20250154283A1

MEASURED_ON: T1, biotinylated human VWF cysteine knot (CK) domain construct (human, UniProt P04275 2724-2813, biotinylated in vitro (BirA) on the biotinylation tag; one N-glycan)
T1 construct: Expressed in HEK293 EBNA cells; disulfide-linked homodimer; also called human VWF CK; human VWF CK domain; not shown: in vitro biotinylation tag, HRV-3C site and 3 VWF residues before the CK domain
TEST_SUMMARY: SPR, scFv captured via anti-SV5, CK domain injected, pH 5.5, apparent Kd;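 note: scFvs from crude yeast supernatants captured on chip-bound anti-SV5 antibody, Kd computed as koff divided by kon, dimeric CK construct likely makes affinity appear higher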
pKd: −log10 of the molar value.

BINDER: 4761_Lib8_scFv (scFv, VH-linker-VL; not shown: C-terminal 3xFLAG and SV5 tags) scFv: EVQLVESGGGLVQPGRSLRLSCAASGFTFSSDTMHWVRQAPGKGLEWVSAISSSGDHTDYADSVEGRFTISRDNAKNSLYLQMNSLRAEDTAVYYCAREGLRGYYFDYWGQGTLVTVSSSGGSTITSYNVYYTKLSSSGTDIQMTQSPSSLSASVGDRVTITCRASQGISGHLAWYQQKPGKAPKLLIYAASALQSGVPSRFSGSGSGTDFTLTISSLQPEDVATYYCQQSHSLPWTFGGGTKVEIK
pKd: 8.88
